Origin of measurements: patent US20250129045A1

# System: Prostate Cancer Growth
# Assay name: SAR studies using inhibition of prostate cancer growth as a readout
# Format: cell-based
# Details: SAR by substituent position
Kindly supply the reported Activity (inhibition of prostate cancer growth) values for the records listed here.

Inquiry: Consider the compound shown here: O=c1c(CNCc2cc(Br)ccn2)cc2ccc(Cl)cc2n1CCOc1ccccc1 What is its recorded Activity (inhibition of prostate cancer growth)?
Reply text: 6 active compounds

Inquiry: Quick check: Activity (inhibition of prostate cancer growth) of O=c1c(CNCc2cccc(Br)n2)cc2ccc(Cl)cc2n1CCOc1ccccc1 ?
Reply text: 1 active compound (methoxy)

Inquiry: Reported Activity (inhibition of prostate cancer growth), compound O=c1c(CNCc2ccc(C(F)(F)F)cn2)cc2ccc(Cl)cc2n1CCOc1ccccc1 : ____
Reply text: 2 active compounds

Inquiry: GET /values?readout=Activity (inhibition of prostate cancer growth)&item= COc1ccnc(CNCc2cc3ccc(Cl)cc3n(CCOc3ccccc3)c2=O)c1
Reply text: 6 active compounds

Inquiry: Look at this compound and give its reported Activity (inhibition of prostate cancer growth). Cc1ccnc(CNCc2cc3ccc(Cl)cc3n(CCOc3ccccc3)c2=O)c1
Reply text: 6 active compounds

Inquiry: Recorded Activity (inhibition of prostate cancer growth) for COc1ccc(CNCc2cc3ccc(Cl)cc3n(CCOc3ccccc3)c2=O)nc1 , please?
Reply text: 2 active compounds

---

# Assay name: Plasma pharmacokinetics after oral dosing in mice
# Assay type: in vivo, mouse
# Details: mouse, plasma, 62 mg/kg, oral, read-out: half-life (T1/2) (converted)
Readout type: half-life (h)
Just the number please, in h, no unit attached.

Inquiry: Need half-life of O=c1c(CNCc2cc(Br)ccn2)cc2ccc(Cl)cc2n1CCOc1ccccc1 [GRG-1-34] , thanks.
Reply text: 2.08

---

# System: PANC1 pancreatic cancer cells
# Assay name: Growth inhibition of PANC1 pancreatic cancer cells
# Format: cell-based
# Method: Cell growth assay: Tumor cells were seeded into 48 well plates (1000 cells/well) and treated with varied agents. The Incucyte real-time imaging system (Incucyte) was used to measure cell proliferation using a non-label cell monolayer confluence approach. The images were captured every 12 h. Graphs were generated using an integrated confluence metric as an alternative for cell numbers. At the end of the study cell growth was visualized by crystal violet staining. […]
Readout type: growth inhibitory activity against PANC1 pancreatic cancer cells

Some solved cases for reference:
INSERT INTO results (molecule_smiles, value_measured) VALUES
  ('O=C(NCc1cc2ccc(Cl)cc2n(CCOc2ccccc2)c1=O)c1ccccn1', 'inactive'),
  ('O=c1c(COCc2ccccc2)cc2ccc(Cl)cc2n1CCOc1ccccc1', 'inactive'),
  ('O=c1c(CNCc2cc(Cl)ccn2)cc2ccc(Cl)cc2n1CCOc1ccccc1', 'most active'),
  ('O=c1c(CNCc2cc(Br)ccn2)cc2ccc(Cl)cc2n1CCOc1ccccc1', 'most active'),
  ('Cc1cccc(CNCc2cc3ccc(Cl)cc3n(CCOc3ccccc3)c2=O)n1', 'most active');

Field: next compound
Inquiry: Endpoint output: growth inhibitory activity against PANC1 pancreatic cancer cells of O=c1c(CNCc2ccccn2)cc2ccc(Cl)cc2n1CCSc1ccccc1 . Value?
Reply text: most active

---

# Tested on: mTORC
# Assay name: Phosphorylation of mTORC substrates in PANC1 cells (Western blot)
# Assay type: cell-based
# Details: overnight incubation, FIG. 19
Readout type: block of phosphorylation of mTORC substrates (AKT, 4E-BP1, S6)

INSERT INTO results (molecule_smiles, value_measured) VALUES
  ('O=c1c(COCc2ccccc2)cc2ccc(Cl)cc2n1CCOc1ccccc1', 'not'),
  ('O=C(NCc1cc2ccc(Cl)cc2n(CCOc2ccccc2)c1=O)c1ccccn1', 'not');
